# Tested on: Key Grass and Sedge Weeds as well as Grass Crops
# measurement-notes: Post-Emergent Test II: postemergent herbicidal activity, visual rating after 14 d (Table 8)
# Type: in vivo
# condition-set: post-emergence, 336 h, maize, corn (Zea mays), 35 g ai/ha, read-out: Visual Growth Reduction (%) 14 Days After Application ZEAMX
Task for the reader: assign each of the following compounds its reported pest or weed control at 35 g/ha.

Query: Look up pest or weed control at 35 g/ha of COC(=O)c1nc(-c2ccc(Cl)c3c2OC(F)(F)O3)c(F)c(N)c1Cl and report it.
Result: 95 to 100%

Query: Provide pest or weed control at 35 g/ha value for the following compound: Nc1c(Cl)c(C(=O)O)nc(-c2cc3c(cc2F)OC(F)(F)O3)c1Cl
Result: 0 to 29%

Query: Please report pest or weed control at 35 g/ha for the following compound: C=Cc1c(C(=O)OC)nc(-c2cc3c(cc2F)OCO3)c(F)c1N
Result: 0 to 29%

Query: Retrieve pest or weed control at 35 g/ha measured for COC(=O)c1nc(-c2ccc3c(c2)OC(C)(C)O3)nc(N)c1Cl and print it.
Result: 60 to 74%

Query: Identify measured pest or weed control at 35 g/ha associated with Nc1c(F)c(-c2cc(F)c3c(c2)OC(F)(F)O3)nc(C(=O)O)c1Cl
Result: 0 to 29%
